Value source: patent US10308637B2

biological target: human plasma kallikrein (Homo sapiens (Human), UniProt P03952); experiment: In vitro enzyme inhibition of human plasma kallikrein (Pro-Phe-Arg-AMC cleavage); conditions: Pro-Phe-Arg-AMC substrate, 37° C., read-out: hPK IC50
Sequence (P03952 391-638 limits assumed): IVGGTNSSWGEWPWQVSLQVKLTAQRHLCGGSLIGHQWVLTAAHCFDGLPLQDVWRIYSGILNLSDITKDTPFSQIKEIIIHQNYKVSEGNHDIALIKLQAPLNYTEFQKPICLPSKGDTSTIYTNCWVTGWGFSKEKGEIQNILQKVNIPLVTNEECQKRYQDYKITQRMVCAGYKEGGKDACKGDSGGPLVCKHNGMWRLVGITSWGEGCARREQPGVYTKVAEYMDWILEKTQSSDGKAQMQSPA
Sequence (P03952 20-390 partner limits assumed): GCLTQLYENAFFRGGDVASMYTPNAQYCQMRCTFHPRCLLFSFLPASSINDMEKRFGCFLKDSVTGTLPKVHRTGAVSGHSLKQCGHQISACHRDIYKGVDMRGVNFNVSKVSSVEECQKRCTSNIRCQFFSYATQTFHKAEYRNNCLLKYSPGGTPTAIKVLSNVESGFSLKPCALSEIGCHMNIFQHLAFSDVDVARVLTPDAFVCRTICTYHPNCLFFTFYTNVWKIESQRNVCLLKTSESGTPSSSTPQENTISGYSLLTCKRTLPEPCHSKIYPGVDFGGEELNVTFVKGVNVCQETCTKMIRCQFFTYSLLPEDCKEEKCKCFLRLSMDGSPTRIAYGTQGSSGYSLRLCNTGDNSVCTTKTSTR
Endpoint Name: IC50

1) Cc1cc(N)nc(C)c1CNC(=O)c1cc(Cc2ccc3ncc(Cl)cc3c2)nc(C(=O)O)c1 [Example 209] | < 100 nM
